So I've got a bunch of compounds here, and I need their inhibition values.
# system_name: BDNF/NT-3 growth factors receptor (Homo sapiens);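 further: values are the mean percent inhibition of TRKB kinase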
# test_conditions: at 1 µM
Response body: numeric value in %, unit text excluded.

Task: Returns the measured inhibition for the input compound. Input: `CS(=O)(=O)CCNCc1nc(-c2ccc3ncnc(Nc4ccc(OCc5cccc(C(F)(F)F)c5)cc4)c3c2)cs1`
Output: 12.1

Task: inhibition for `O=C1Nc2ccccc2/C1=C/Nc1ccc2[nH]c(=O)[nH]c2c1` ?
Output: 72.7

Task: Using the record for `COc1cc2ncnc(Nc3ccc4c(cnn4Cc4ccccc4)c3)c2cc1OC` , report its inhibition.
Output: 3.38

Task: Given the compound `CN1CCN(C(=O)c2ccc(NC(=O)Nc3ccc(N(C)c4ccnc(Nc5ccc(CS(C)(=O)=O)cc5)n4)cc3)cc2)CC1` , what is its reported inhibition?
Output: 31.5

Task: Which inhibition is reported for this compound? `COc1cccc(-n2ncc3c(N/N=C/c4ccc(C)cc4)ncnc32)c1`
Output: 5.08

Task: Which inhibition value is on record for `COc1cc2ncn(-c3cc(OCc4ccccc4S(C)(=O)=O)c(C#N)s3)c2cc1OC` ?
Output: 57.2

Task: Requested field: inhibition. Item: `COc1ccc2ncnc(Nc3ccc(OCc4ccccc4)cc3)c2c1`
Output: 2.63

Task: For the compound shown here, `CCS(=O)(=O)c1ccc(OC)c(Nc2nccc(N(C)c3ccc4c(C)n[nH]c4c3)n2)c1` , give the reported inhibition.
Output: 14.1

Task: Please give the measured inhibition for this compound: `Cc1cc(-c2ccccn2)cc(C)c1/C=C/c1cncc(-c2nn[nH]n2)c1`
Output: 4.13
